# Test system: THP-1
# Test Method Notes: Inhibition of 1 ug/mL LPS-induced IL1-beta production in human monocytic cells after 4 hrs
# Format: functional, cell-based
# Condition Details: THP-1, 4 h
Endpoint Label: IC50 (nM)

Worked cases, answers included:
>>> number("O=CN1CCCN(CC(=O)N[C@H]2CC(=O)OC2O)C(=O)[C@@H](NC(=O)c2ccc3ccccc3c2)C1 (some centres not stated)")
219
>>> number("O=C(CN1CCCN(C(=O)Cc2ccccc2)C[C@H](NC(=O)c2ccc3ccccc3c2)C1=O)N[C@H]1CC(=O)OC1O (some centres not stated)")
808
>>> number("Cc1ccc(Cl)cc1C(=O)N[C@H]1CN(C(=O)c2ccccc2)CCCN(CC(=O)N[C@H]2CC(=O)OC2O)C1=O (some centres not stated)")
298
>>> number("COc1ccccc1C(=O)N1CCCN(CC(=O)N[C@H]2CC(=O)OC2O)C(=O)[C@@H](NC(=O)c2ccc3ccccc3c2)C1 (some centres not stated)")
246

I. CC(=O)N1CCCN(CC(=O)N[C@H]2CC(=O)OC2O)C(=O)[C@@H](NC(=O)c2ccc3ccccc3c2)C1 (some centres not stated)
II. O=C(CN1CCCN(C(=O)C2CCCCC2)C[C@H](NC(=O)c2ccc3ccccc3c2)C1=O)N[C@H]1CC(=O)OC1O (some centres not stated)
Query: Hi! Which is lower in terms of IC50, the first one I or the second one II ? Output the label that corresponds to your choice.
Response: I
